All values here come from patent US8785452B2.

tested on: M. tuberculosis H37Rv-GFP; assay: microbe, parasite or virus in culture; assay type: cell-based; conditions: Mycobacterium tuberculosis, read-out: QUM Confirm % Inhibition 2 uM
// inhibition at 2 µM lookup, one value per entry
# value in %; strip the unit string

Below, each entry is followed by its recorded inhibition at 2 µM result.
# chemicalString, resultNumber
rows = [
    ("O=C(N/N=C/c1cccc([N+](=O)[O-])c1)c1ccncc1", 82.3),
    ("O=C(N/N=C/c1ccccc1F)c1ccncc1", 92.2),
    ("O=[N+]([O-])c1cc(C(F)(F)F)cc([N+](=O)[O-])c1Sc1nc(-c2ccccc2)c[nH]1", 41.2),
    ("O=C(/C=C/c1ccc(Cl)cc1Cl)c1ccc(Cl)cc1", 59.4),
]

Next up:
Documented inhibition at 2 µM of Cc1ccc2ccc3ccc(C)nc3c2n1 : 52.4

====

test system: Raw264.7 cells; test: Cell number (CellNb) from image analysis of the phenotypic cell-based assay; conditions: primary screen, 20 μM
Entry flag: Condition met if Primary QIM CellNb reaches 200; Condition not met if it does not.

Solved entries:
# compound, assignedCategory
measured = [
    ("Cc1ccc(/C=N/NC(=O)c2ccncc2)cc1", "Condition met"),
    ("O=C(Nc1cccnc1)c1ccc(COc2ccc3ccccc3c2)o1", "Condition not met"),
    ("O=C(N/N=C/c1cc(Br)cc(Br)c1O)c1ccncc1", "Condition met"),
]

Test whether the compound CCOC(=O)/C=C/C(=O)NNC(=O)c1cccs1 records Primary QIM CellNb of 200 or higher.
Condition not met

Test whether the compound O=C(N/N=C/c1cccc(Cl)c1Cl)c1ccncc1 records Primary QIM CellNb of 200 or higher.
Condition not met

Test whether the compound Cc1ccc(NC(=O)c2c(NC(=O)c3ccccc3Cl)sc3c2CCC3)cc1 records Primary QIM CellNb of 200 or higher.
Condition met

Test whether the compound CCOc1ccccc1/C=N/NC(=O)c1ccncc1 records Primary QIM CellNb of 200 or higher.
Condition not met

Test whether the compound O=C(N/N=C\c1cc2c(s1)CCCCC2)c1ccncc1 records Primary QIM CellNb of 200 or higher.
Condition not met

Test whether the compound O=C(N/N=C/c1ccccc1O)c1ccncc1 records Primary QIM CellNb of 200 or higher.
Condition met

Test whether the compound CCN(CC)c1ccc(/C=N/NC(=O)c2cccs2)c(O)c1 records Primary QIM CellNb of 200 or higher.
Condition not met

Test whether the compound C/C(=N/NC(=O)c1ccncc1)c1cccs1 records Primary QIM CellNb of 200 or higher.
Condition met

Test whether the compound CN(C)c1ccc(/C=N/NC(=O)c2ccncc2)cc1 records Primary QIM CellNb of 200 or higher.
Condition met

Test whether the compound Oc1ccccc1/N=C/c1cc(Br)cc(Br)c1O records Primary QIM CellNb of 200 or higher.
Condition not met

Test whether the compound O=C(Nc1sc2c(c1C(=O)Nc1ccccc1)CCC2)c1ccccc1Br records Primary QIM CellNb of 200 or higher.
Condition met

Test whether the compound CCCCc1ccc(/C=N/NC(=O)c2ccncc2)cc1 records Primary QIM CellNb of 200 or higher.
Condition met

Test whether the compound O=C(Nc1ccc(Cl)c(Cl)c1)c1ccc([N+](=O)[O-])cc1Cl records Primary QIM CellNb of 200 or higher.
Condition met

Test whether the compound O=C(N/N=C\c1ccc(Cl)s1)c1ccncc1 records Primary QIM CellNb of 200 or higher.
Condition met

Test whether the compound O=C1CSC(N/N=C/c2cc([N+](=O)[O-])ccc2O)N1 (stereo not drawn) records Primary QIM CellNb of 200 or higher.
Condition not met

Test whether the compound CCc1nnc(NS(=O)(=O)c2ccc(N)cc2)s1 records Primary QIM CellNb of 200 or higher.
Condition not met

Test whether the compound Oc1ccccc1/N=C/c1cc(Cl)cc(Cl)c1O records Primary QIM CellNb of 200 or higher.
Condition not met
